target: complexe de recapture de la dopamine (Rattus norvegicus, UniProt P23977); construct: expériences de compétition sur les membranes de striatum préparées comme ci-dessus; from tissue; host or cells: rat striatal membranes; test: biochemical; type: binding; conditions: ratio of IC50 at the PCP receptor to IC50 at the dopamine reuptake complex
Sequence (P23977 whole entry, one chain of several): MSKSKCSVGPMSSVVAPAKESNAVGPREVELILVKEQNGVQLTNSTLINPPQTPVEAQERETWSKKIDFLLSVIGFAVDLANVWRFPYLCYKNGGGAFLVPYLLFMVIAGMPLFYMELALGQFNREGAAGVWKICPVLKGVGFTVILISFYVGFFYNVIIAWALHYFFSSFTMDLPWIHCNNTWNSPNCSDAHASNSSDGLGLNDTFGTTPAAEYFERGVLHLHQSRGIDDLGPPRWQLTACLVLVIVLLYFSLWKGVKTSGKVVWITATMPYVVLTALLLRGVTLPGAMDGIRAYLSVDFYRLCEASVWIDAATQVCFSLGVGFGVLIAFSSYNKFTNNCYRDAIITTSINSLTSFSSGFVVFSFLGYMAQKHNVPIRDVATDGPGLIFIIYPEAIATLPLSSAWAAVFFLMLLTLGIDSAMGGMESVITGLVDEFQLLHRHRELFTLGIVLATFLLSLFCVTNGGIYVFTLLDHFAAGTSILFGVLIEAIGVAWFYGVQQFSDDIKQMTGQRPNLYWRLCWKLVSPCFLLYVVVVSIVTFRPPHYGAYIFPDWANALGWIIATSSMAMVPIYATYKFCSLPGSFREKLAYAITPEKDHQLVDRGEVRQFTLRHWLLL

compound	experimental.target	Sélectivité IC50[^3H]TCP / IC50[^3H]BTCP
CC1CC(C)CN(C2(c3cc4ccccc4s3)CCCCC2)C1 (centres unmarked)	complexe de recapture de la dopamine (Rattus norvegicus, UniProt P23977)	>>7874
c1ccc2sc(C3(N4CCC5(CC4)OCCO5)CCCCC3)cc2c1	complexe de recapture de la dopamine (Rattus norvegicus, UniProt P23977)	>>2816
C[C@H]1CC[C@@](c2cc3ccccc3s2)(N2CCCCC2)CC1	complexe de recapture de la dopamine (Rattus norvegicus, UniProt P23977)	>>14493
ICC1CCCN(C2(c3cc4ccccc4s3)CCCCC2)C1 (centres unmarked)	complexe de recapture de la dopamine (Rattus norvegicus, UniProt P23977)	>>3846
BrCC1CCCN(C2(c3cc4ccccc4s3)CCCCC2)C1 (centres unmarked)	complexe de recapture de la dopamine (Rattus norvegicus, UniProt P23977)	>>2898
